system: human platelets; assay: Inhibition of the binding of ^3 H-BIBU 52 to human platelets (fibrinogen binding test); settings: ^3 H-BIBU 52 5 nM, human platelet-rich plasma, room temperature, 20 minutes; 50% inhibition of binding
pIC50: −log10 of the molar value. Counter-ions that a name gives are not always drawn.
Attribute measured: pIC50

>>> numeric_readout("Cc1nc(C2CCNCC2)sc1C(=O)Nc1ccc(OCC(=O)O)cc1 [4(3), hydrobromide]")
7.35
>>> numeric_readout("O=C(O)CO[C@H]1CC[C@H](NC(=O)c2cnc(C3CCNCC3)s2)CC1 [2(12), hydrobromide]")
7.14
>>> numeric_readout("O=C(O)COc1ccc(NC(=O)c2cnc(C3CCNCC3)s2)cc1 [4(19), hydrate]")
7.42
>>> numeric_readout("COC(=O)COc1ccc(NC(=O)c2sc(C3CCNCC3)nc2C)cc1 [2(3), hydrobromide]")
6.52
>>> numeric_readout("CS(=O)(=O)N(CC(=O)O)[C@H]1CC[C@H](C(=O)Nc2cn(C3CCNCC3)cn2)CC1 [5(2), dihydrochloride]")
5.80
>>> numeric_readout("O=C(N[C@H]1CC[C@H](C(=O)O)CC1)c1cn(CCC2CCNCC2)cn1 [4(27), dihydrochloride]")
6.72
>>> numeric_readout("O=C(O)CC[C@H]1CC[C@H](NC(=O)c2cn(C3CCNCC3)cn2)CC1 [Example 4, dihydrochloride]")
6.92
>>> numeric_readout("O=C(/C=C/c1cn(C2CCNCC2)cn1)N[C@H]1CC[C@H](C(=O)O)CC1 [4(8), dihydrochloride]")
5.60
>>> numeric_readout("O=C(O)COc1ccc(NC(=O)c2nnc(C3CCNCC3)s2)cc1 [4(6), hydrochloride]")
7.19
>>> numeric_readout("O=C(O)CC[C@H]1CC[C@H](NC(=O)c2cnc(C3CCNCC3)s2)CC1 [4(20), hydrobromide]")
7.20

====

Recorded EC50 by entry
tested on: platelet aggregation; assay: Inhibition of collagen-induced platelet aggregation (Born and Cross) in platelet-rich plasma; assay type: cell-based, human (platelet-rich plasma of healthy subjects); conditions: human platelet-rich plasma, 10 minutes preincubation at 37° C., 50% change in optical density
Where a name gives a salt, the structure may show the parent alone.
Attribute measured: EC50

>>> result("COC(=O)COc1ccc(NC(=O)c2sc(C3CCNCC3)nc2C)cc1 [2(3), hydrobromide]")
"140 nM"
>>> result("CS(=O)(=O)N(CC(=O)O)[C@H]1CC[C@H](C(=O)Nc2cn(C3CCNCC3)cn2)CC1 [5(2), dihydrochloride]")
"3800 nM"
>>> result("O=C(O)CC[C@H]1CC[C@H](NC(=O)c2cnc(C3CCNCC3)s2)CC1 [4(20), hydrobromide]")
"120 nM"
>>> result("O=C(/C=C/c1cn(C2CCNCC2)cn1)N[C@H]1CC[C@H](C(=O)O)CC1 [4(8), dihydrochloride]")
"1800 nM"
>>> result("O=C(O)CO[C@H]1CC[C@H](NC(=O)c2cnc(C3CCNCC3)s2)CC1 [2(12), hydrobromide]")
"140 nM"
>>> result("O=C(O)COc1ccc(NC(=O)c2cnc(C3CCNCC3)s2)cc1 [4(19), hydrate]")
"100 nM"
>>> result("O=C(N[C@H]1CC[C@H](C(=O)O)CC1)c1cn(CCC2CCNCC2)cn1 [4(27), dihydrochloride]")
"280 nM"
>>> result("O=C(O)COc1ccc(NC(=O)c2nnc(C3CCNCC3)s2)cc1 [4(6), hydrochloride]")
"170 nM"
>>> result("Cc1nc(C2CCNCC2)sc1C(=O)Nc1ccc(OCC(=O)O)cc1 [4(3), hydrobromide]")
"130 nM"
>>> result("O=C(O)CC[C@H]1CC[C@H](NC(=O)c2cn(C3CCNCC3)cn2)CC1 [Example 4, dihydrochloride]")
"160 nM"
